All figures here come from paper doi:10.1101/2022.05.05.490830.

SYSTEM NAME: hPolεCD (E. coli) (Homo sapiens, UniProt Q07864 28-1194)
Sequence (Q07864 28-1194): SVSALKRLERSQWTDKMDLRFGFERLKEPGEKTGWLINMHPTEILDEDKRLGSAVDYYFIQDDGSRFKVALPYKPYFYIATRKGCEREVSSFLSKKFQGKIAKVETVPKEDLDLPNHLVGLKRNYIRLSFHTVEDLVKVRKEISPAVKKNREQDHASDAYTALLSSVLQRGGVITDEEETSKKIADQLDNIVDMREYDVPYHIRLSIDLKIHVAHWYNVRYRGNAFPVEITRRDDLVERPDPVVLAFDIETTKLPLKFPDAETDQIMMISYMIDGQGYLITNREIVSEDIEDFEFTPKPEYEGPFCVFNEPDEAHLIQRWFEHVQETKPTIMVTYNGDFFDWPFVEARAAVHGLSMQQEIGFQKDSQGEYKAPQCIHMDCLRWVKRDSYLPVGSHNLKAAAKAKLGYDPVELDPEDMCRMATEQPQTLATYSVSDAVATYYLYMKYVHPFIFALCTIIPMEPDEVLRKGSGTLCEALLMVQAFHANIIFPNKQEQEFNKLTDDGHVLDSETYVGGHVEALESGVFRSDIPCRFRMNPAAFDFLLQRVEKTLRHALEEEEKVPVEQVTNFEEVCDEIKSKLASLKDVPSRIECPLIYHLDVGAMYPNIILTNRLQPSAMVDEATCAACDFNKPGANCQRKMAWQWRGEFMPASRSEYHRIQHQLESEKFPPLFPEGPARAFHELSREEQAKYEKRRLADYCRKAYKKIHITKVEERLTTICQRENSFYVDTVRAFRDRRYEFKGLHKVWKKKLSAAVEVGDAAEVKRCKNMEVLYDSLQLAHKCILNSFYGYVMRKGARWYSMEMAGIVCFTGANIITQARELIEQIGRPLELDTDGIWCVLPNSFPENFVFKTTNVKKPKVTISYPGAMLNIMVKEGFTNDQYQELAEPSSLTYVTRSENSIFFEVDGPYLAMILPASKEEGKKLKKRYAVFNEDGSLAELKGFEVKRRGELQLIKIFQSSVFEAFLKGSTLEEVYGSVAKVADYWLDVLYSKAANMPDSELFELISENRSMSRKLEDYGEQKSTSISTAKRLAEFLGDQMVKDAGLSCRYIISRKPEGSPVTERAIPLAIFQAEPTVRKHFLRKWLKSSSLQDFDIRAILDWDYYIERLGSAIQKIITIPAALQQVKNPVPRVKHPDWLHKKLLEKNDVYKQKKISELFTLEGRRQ
PROTOCOL SUMMARY: BLI
pKd: −log10 of the molar value.
MEASURE NAME: pKd

In [3]: df
Out[3]:
                                     binder  measure_name  recorded_number
0  Octet template:primer 23/11 (dsDNA, 3' dideoxycytidine on primer) DNA 1: AATACATAAGCGCTCCAGGCAAT DNA 2: GCCTGGAGCGC           pKd             5.49
